- System: yeast-induced fever in rats
- assayText: Antipyretic action: yeast-induced fever in rats
- Assay type: in vivo, rats (female Sprague-Dawley)
- details: yeast-induced fever; LD50 7 days, rats
Assignment: determine reported Therapeutic quotient LD50/ED2.5 for the given compounds.

In plain terms, `Cc1cccc(C)c1Nc1cscc1CC(=O)O` has a documented Therapeutic quotient LD50/ED2.5 of > 100

Reported Therapeutic quotient LD50/ED2.5 ( `O=C(O)Cc1cscc1Nc1c(F)cccc1F` ) = > 33

response.value for `O=C(O)Cc1sccc1Nc1c(Cl)cccc1Cl` (field: Therapeutic quotient LD50/ED2.5) = > 66.7

Input `Cc1cccc(Cl)c1Nc1cscc1CC(=O)O` . Output Therapeutic quotient LD50/ED2.5: > 66.7

Measured Therapeutic quotient LD50/ED2.5, `Cc1ccc(Cl)c(Nc2cscc2CC(=O)O)c1Cl` : > 26.7

----------
- System: formation of granulation tissue after subcutaneous implantation of cotton
- assayText: Chronic antiphlogistic action: cotton pellet test (formation of granulation tissue) in rats
- details: cotton pellet test; LD50 7 days oral, rats
- Procedure: Biol. Med., 111 (1962) 544]}, on chronic inflammatory processes {Cotton pellet test on rats [Winter et al.: J. Pharmacol. exp. Therap., 141 (1963) 369]} and on adjuvant arthritis [based on the method of Perrine et al., Brit. J. Pharmacol., 21 (1963) 127] is determined. Experimental procedure for investigating the influence of the compounds to be tested on the formation of granulation tissue after implantation of cotton in rats (so-called cotton pellet method): […]
Consider the following molecules; for each one, report its Therapeutic quotient LD50/ED20.

Entry `Cc1cccc(C)c1Nc1cscc1CC(=O)O` , formation of granulation tissue after subcutaneous implantation of cotton data, Therapeutic quotient LD50/ED20 value: > 10

Known value: formation of granulation tissue after subcutaneous implantation of cotton Therapeutic quotient LD50/ED20 of the molecule `Cc1ccc(Cl)c(Nc2cscc2CC(=O)O)c1Cl` equals 5

Assay formation of granulation tissue after subcutaneous implantation of cotton, sample `O=C(O)Cc1cscc1Nc1c(Cl)cccc1Cl` , Therapeutic quotient LD50/ED20 read: ~ 11

Value sought: Therapeutic quotient LD50/ED20, system formation of granulation tissue after subcutaneous implantation of cotton, item `Cc1cccc(Nc2cscc2CC(=O)O)c1Cl` . Result: > 5.7

Measured Therapeutic quotient LD50/ED20 (formation of granulation tissue after subcutaneous implantation of cotton), entry COc1ccc2c(c1)c(CC(=O)O)c(C)n2C(=O)c1ccc(Cl)cc1 [Compound 2, indomethacin, reference compound] : ~ 1.8

----------
Exercise: for every item that follows, state its recorded Therapeutic quotient LD50/ED50.
- Test system: carrageenin edema of the hind paw of rats
- assayText: Acute antiphlogistic action: carrageenin edema of the hind paw of rats after single oral administration
- details: carrageenin edema; LD50 7 days oral, rats

The molecule identified as `O=C(O)Cc1sccc1Nc1c(Cl)cccc1Cl` registered its Therapeutic quotient LD50/ED50 at > 6.7

Recorded Therapeutic quotient LD50/ED50 (molecule `Cc1cccc(Cl)c1Nc1ccsc1CC(=O)O` ): > 6.7

The molecule listed as `Cc1c(Cl)cccc1Nc1cscc1CC(=O)O` shows Therapeutic quotient LD50/ED50 equal to > 10

Entry under test: `Cc1cccc(Cl)c1Nc1cscc1CC(=O)O` . Its Therapeutic quotient LD50/ED50 was > 6.7
